Molecular target: hCB2R (Homo sapiens (Human), UniProt P34972)
Test: TR-FRET hCB2R Binding Assay
Conditions: SNAP-tagged human CB2R HEK293-TR cell membranes, TR-FRET (HTRF) detection, nonspecific binding with 1 μM SR144528; read-out: Kd hCB2R
Outcome Measure: pKd
Note: pKd values are expressed as the negative base-10 logarithm of concentration in M.

Answered examples (3):
Cpd Smiles	Value Reported
COc1cc(C(C)(C)CCCCCCN=[N+]=[N-])cc(OC)c1[C@H]1C=C(CNC(=O)CCCCCCNC(=O)c2ccc(S(=O)(=O)N(CC#N)C(=O)CCc3cn(CCOCCNc4ccc([N+](=O)[O-])c5nonc45)nn3)cc2)[C@H]2C[C@@H]1C2(C)C	6.82
CCCCCCC(C)(C)c1cc(OC)c([C@H]2C=C(CNC(=O)CCCCCCNC(=O)c3ccc(S(=O)(=O)N(Cc4ccccn4)C(=O)CCCCCNc4ccc([N+](=O)[O-])c5nonc45)cc3)[C@H]3C[C@@H]2C3(C)C)c(OC)c1	7.45
COc1cc(C(C)(C)CCCCCCN=[N+]=[N-])cc(OC)c1[C@H]1C=C(CNC(=O)CCCCCCOc2c(F)c(F)c3c(c2F)C2(OC3=O)c3ccc(N4CCC4)cc3[Si](C)(C)c3cc(N4CCC4)ccc32)[C@H]2C[C@@H]1C2(C)C	8.70

Next compound, pKd to be filled in.
Asked: Give its pKd value. Item: COc1cc(C(C)(C)CCCCCCN=[N+]=[N-])cc(OC)c1[C@H]1C=C(CNC(=O)CCCCCCNC(=O)c2ccc(S(=O)(=O)N(CC#N)C(=O)CCc3cn(CCOCCNC(=O)c4ccc5c(c4)C4(OC5=O)c5ccc(N6CCC6)cc5[Si](C)(C)c5cc(N6CCC6)ccc54)nn3)cc2)[C@H]2C[C@@H]1C2(C)C
Given back: 6.91

----------
Each entry below lists one item and its recorded pKd value.
Target: hCB2R (Homo sapiens (Human), UniProt P34972)
Experiment: TR-FRET hCB2R Binding Assay
Details: SNAP-tagged human CB2R HEK293-TR cell membranes, TR-FRET (HTRF) detection, nonspecific binding with 1 μM SR144528; read-out: Kd hCB2R
API: returns pKd as number; meaning -log10 of concentration in mol/L.

Use these answered entries as a reference point.
Cpd Smiles	Value Reported
COc1cc(C(C)(C)CCCCCCN=[N+]=[N-])cc(OC)c1[C@H]1C=C(CNC(=O)CCCCCCNC(=O)c2ccc(S(=O)(=O)N(CC#N)C(=O)CCCCCNc3ccc([N+](=O)[O-])c4nonc34)cc2)[C@H]2C[C@@H]1C2(C)C	8.41
COc1cc(C(C)(C)CCCCCCN=[N+]=[N-])cc(OC)c1[C@H]1C=C(CNC(=O)CCCCCCNC(=O)c2ccc(S(=O)(=O)N(Cc3ccccn3)C(=O)CCCCCNc3ccc([N+](=O)[O-])c4nonc34)cc2)[C@H]2C[C@@H]1C2(C)C	7.92
COc1cc(C(C)(C)CCCCCCN=[N+]=[N-])cc(OC)c1[C@H]1C=C(CNC(=O)CCCCNC(=O)c2ccc(=O)n(S(=O)(=O)c3cccc(C(=O)NCCc4cn(CCOCCNc5ccc([N+](=O)[O-])c6nonc56)nn4)c3)c2)[C@H]2C[C@@H]1C2(C)C	8.04

Asked: Please give the measured pKd for this compound: CCN(CC)c1ccc2cc(C=Cc3ccc(S(=O)(=O)[O-])c[n+]3CCCCCC(=O)NCCOCCn3cc(CCC(=O)N(CC#N)S(=O)(=O)c4ccc(C(=O)NCCCCCCC(=O)NCC5=C[C@H](c6c(OC)cc(C(C)(C)CCCCCCN=[N+]=[N-])cc6OC)[C@@H]6C[C@H]5C6(C)C)cc4)nn3)c(=O)oc2c1
Given back: 7.60

Asked: What about this compound? C#CCCC(=O)N(CC#N)S(=O)(=O)c1ccc(C(=O)NCCCCCCC(=O)NCC2=C[C@H](c3c(OC)cc(C(C)(C)CCCCCCN=[N+]=[N-])cc3OC)[C@@H]3C[C@H]2C3(C)C)cc1
Given back: 8.82
